# Assay info: Pharmacokinetic evaluation in mice (IV and PO)
# Type: in vivo
# Cond: mouse, plasma; PO 2 mg/kg, female Balb/c mice
# Protocol: Experimental procedure: A 0.1 mg/mL clear solution of the test compound in the corresponding solvent medium (see Table 22) was injected into female Balb/c mice (fasting overnight, 7-9 weeks old) via tail vein at a dose of 0.2 mg/kg. […] The plasma concentration was determined by LC-MS/MS method, and the relative pharmacokinetic parameters were calculated using WinNonlin™ Version 6.3 (Pharsight, Mountain View, CA) pharmacokinetic software by non-compartment model linear logarithmic trapezoidal method. […]
Quantity name: AUC(0-t) (µM·h)
Write it as a number; the unit µM·h goes unstated.

Prompt: Fill in the blank: the reported AUC(0-t) of `COc1ccc(CN2C3CC2CN(c2cnc(-c4cc(C5=CCOCC5)cn5ncc(C#N)c45)cn2)C3)cn1` is ____.
Response: 26.9
